All values here come from patent US12528773B2.

Field: pIC50. Provide a value for each of the compounds that follow.
# measurement target: GBA2 (Homo sapiens (Human))
# Sequence (Q9HCG7 whole entry): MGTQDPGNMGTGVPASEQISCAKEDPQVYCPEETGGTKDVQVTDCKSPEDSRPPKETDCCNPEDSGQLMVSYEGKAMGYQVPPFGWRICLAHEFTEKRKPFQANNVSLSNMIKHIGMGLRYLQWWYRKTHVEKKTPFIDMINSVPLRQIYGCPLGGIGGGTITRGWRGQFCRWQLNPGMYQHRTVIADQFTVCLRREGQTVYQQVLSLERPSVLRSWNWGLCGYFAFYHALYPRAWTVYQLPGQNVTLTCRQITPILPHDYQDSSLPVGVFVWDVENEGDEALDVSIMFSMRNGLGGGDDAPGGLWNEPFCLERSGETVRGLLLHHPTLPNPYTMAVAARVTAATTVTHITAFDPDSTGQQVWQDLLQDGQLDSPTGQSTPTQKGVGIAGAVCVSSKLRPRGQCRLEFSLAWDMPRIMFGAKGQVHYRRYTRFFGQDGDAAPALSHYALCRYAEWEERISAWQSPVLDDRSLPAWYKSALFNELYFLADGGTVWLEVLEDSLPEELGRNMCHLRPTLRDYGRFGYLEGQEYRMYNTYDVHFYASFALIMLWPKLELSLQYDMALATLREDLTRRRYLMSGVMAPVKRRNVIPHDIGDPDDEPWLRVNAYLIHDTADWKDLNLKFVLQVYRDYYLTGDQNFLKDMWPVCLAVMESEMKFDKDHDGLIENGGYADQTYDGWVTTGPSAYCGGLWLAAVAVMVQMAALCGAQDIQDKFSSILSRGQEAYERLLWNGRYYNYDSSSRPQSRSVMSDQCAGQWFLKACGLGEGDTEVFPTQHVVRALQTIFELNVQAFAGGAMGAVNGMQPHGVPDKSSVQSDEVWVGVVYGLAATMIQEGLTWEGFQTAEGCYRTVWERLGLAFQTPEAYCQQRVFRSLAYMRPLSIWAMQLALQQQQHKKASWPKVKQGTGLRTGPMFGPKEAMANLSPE
# test summary: Inhibition of GBA2 in cell lysate (4-methylumbelliferone glucopyranoside substrate);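 note: homogenate of stably transfected HEK293T cells pre-treated with a GCase inhibitor, test compound preincubated 5 min at 37 °C, substrate reaction 20 min at 37 °C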
# Format: biochemical
# condition context: HEK293T-overexpressing GBA2 cellular homogenate, pH 5.5; read-out: GBA2 IC50
pIC50: −log10 of the molar value.

Ask | Form field - read-out: pIC50; system: GBA2 (Homo sapiens (Human)); submitted item: O[C@H]1[C@H](O)CN(CC2(F)CCN(c3ncccc3C(F)(F)F)CC2)C[C@@H]1O
Reply | > 7.00

Ask | Form field - read-out: pIC50; system: GBA2 (Homo sapiens (Human)); submitted item: CCCCOc1ccc(CN2C[C@@H](O)[C@H](O)[C@@H](O)C2)cc1
Reply | > 7.00

Ask | Form field - read-out: pIC50; system: GBA2 (Homo sapiens (Human)); submitted item: O[C@H]1[C@H](O)CN(C[C@@H]2CCN(c3ccc(C(F)(F)F)cn3)C2)C[C@@H]1O
Reply | > 7.00

Ask | Form field - read-out: pIC50; system: GBA2 (Homo sapiens (Human)); submitted item: O[C@H]1[C@H](O)CN(C[C@@H]2CCN(c3cnccc3C(F)(F)F)C2)C[C@@H]1O
Reply | > 7.00

Ask | Form field - read-out: pIC50; system: GBA2 (Homo sapiens (Human)); submitted item: O[C@H]1[C@H](O)CN(CCc2c(F)cc(N3CCCCC3)cc2F)C[C@@H]1O
Reply | > 7.00

Ask | Form field - read-out: pIC50; system: GBA2 (Homo sapiens (Human)); submitted item: O[C@H]1[C@H](O)CN(C[C@@H]2CCCN(c3ccncc3C(F)(F)F)C2)C[C@@H]1O
Reply | 6.00 to 7.00

Ask | Form field - read-out: pIC50; system: GBA2 (Homo sapiens (Human)); submitted item: O[C@H]1[C@H](O)CN(CC2CCN(c3ccccc3)CC2)C[C@@H]1O
Reply | > 7.00

Ask | Form field - read-out: pIC50; system: GBA2 (Homo sapiens (Human)); submitted item: CCCCCOc1ccc(CN2C[C@@H](O)[C@H](O)[C@@H](O)C2)cc1
Reply | > 7.00

Ask | Form field - read-out: pIC50; system: GBA2 (Homo sapiens (Human)); submitted item: O[C@H]1[C@H](O)CN(C[C@H]2CC[C@H](C(F)F)CC2)C[C@@H]1O
Reply | 6.00 to 7.00

Ask | Form field - read-out: pIC50; system: GBA2 (Homo sapiens (Human)); submitted item: O[C@H]1[C@H](O)CN(Cc2cccs2)C[C@@H]1O
Reply | 4.60 to 6.00

Ask | Form field - read-out: pIC50; system: GBA2 (Homo sapiens (Human)); submitted item: CC(C)c1cnc(N2CCC[C@H](CN3C[C@@H](O)[C@H](O)[C@@H](O)C3)C2)s1
Reply | > 7.00

Ask | Form field - read-out: pIC50; system: GBA2 (Homo sapiens (Human)); submitted item: O[C@H]1[C@H](O)CN(C[C@H]2CC[C@@H](C(F)F)CC2)C[C@@H]1O
Reply | 6.00 to 7.00

Ask | Form field - read-out: pIC50; system: GBA2 (Homo sapiens (Human)); submitted item: O[C@H]1[C@H](O)CN(CCc2cccc(Cl)c2F)C[C@@H]1O
Reply | > 7.00

Ask | Form field - read-out: pIC50; system: GBA2 (Homo sapiens (Human)); submitted item: O[C@H]1[C@H](O)CN(CCc2c(F)cc(N3CCCC3)cc2F)C[C@@H]1O
Reply | > 7.00

Ask | Form field - read-out: pIC50; system: GBA2 (Homo sapiens (Human)); submitted item: O[C@H]1[C@H](O)CN(CCc2ccc(Cl)c(Cl)c2)C[C@@H]1O
Reply | > 7.00

Ask | Form field - read-out: pIC50; system: GBA2 (Homo sapiens (Human)); submitted item: O[C@H]1[C@H](O)CN(CC2(F)CCN(c3ccc(F)cc3)CC2)C[C@@H]1O
Reply | 6.00 to 7.00

Ask | Form field - read-out: pIC50; system: GBA2 (Homo sapiens (Human)); submitted item: O[C@H]1[C@H](O)CN(C[C@@H]2CCCN(c3cccc(C(F)(F)F)n3)C2)C[C@@H]1O
Reply | 6.00 to 7.00

Ask | Form field - read-out: pIC50; system: GBA2 (Homo sapiens (Human)); submitted item: O[C@H]1[C@H](O)CN(C[C@H]2CCCN(c3cncc(C(F)(F)F)c3)C2)C[C@@H]1O
Reply | > 7.00

Ask | Form field - read-out: pIC50; system: GBA2 (Homo sapiens (Human)); submitted item: O[C@H]1[C@H](O)CN(C[C@@H]2CCN(c3cncnc3C(F)(F)F)C2)C[C@@H]1O
Reply | > 7.00

Ask | Form field - read-out: pIC50; system: GBA2 (Homo sapiens (Human)); submitted item: O[C@H]1[C@H](O)CN(C[C@@H]2CCCN(c3cc(C(F)(F)F)ccn3)C2)C[C@@H]1O
Reply | 6.00 to 7.00

Ask | Form field - read-out: pIC50; system: GBA2 (Homo sapiens (Human)); submitted item: O[C@H]1[C@H](O)CN(C[C@@H]2CCN(c3ncccc3C(F)(F)F)C2)C[C@@H]1O
Reply | > 7.00

Ask | Form field - read-out: pIC50; system: GBA2 (Homo sapiens (Human)); submitted item: O[C@H]1[C@H](O)CN(C[C@H]2CCCN(c3cnccc3C(F)(F)F)C2)C[C@@H]1O
Reply | > 7.00

Ask | Form field - read-out: pIC50; system: GBA2 (Homo sapiens (Human)); submitted item: O[C@H]1[C@H](O)CN(CCc2c(F)ccc(Cl)c2F)C[C@@H]1O
Reply | > 7.00

Ask | Form field - read-out: pIC50; system: GBA2 (Homo sapiens (Human)); submitted item: O[C@H]1[C@H](O)CN(C[C@@H]2CCN(c3ccc(C(F)(F)F)nc3)C2)C[C@@H]1O
Reply | > 7.00

Ask | Form field - read-out: pIC50; system: GBA2 (Homo sapiens (Human)); submitted item: O[C@H]1[C@H](O)CN(C[C@H]2CC[C@H](C(F)(F)F)CC2)C[C@@H]1O
Reply | > 7.00

Ask | Form field - read-out: pIC50; system: GBA2 (Homo sapiens (Human)); submitted item: O[C@H]1[C@H](O)CN(C[C@H]2CCN(c3nc4ccccc4s3)C2)C[C@@H]1O
Reply | > 7.00

Ask | Form field - read-out: pIC50; system: GBA2 (Homo sapiens (Human)); submitted item: O[C@H]1[C@H](O)CN(C[C@@H]2CCCN(c3ncccc3C(F)(F)F)C2)C[C@@H]1O
Reply | > 7.00

Ask | Form field - read-out: pIC50; system: GBA2 (Homo sapiens (Human)); submitted item: O[C@H]1[C@H](O)CN(C[C@@H]2CCCN(c3ccc(C(F)(F)F)nc3)C2)C[C@@H]1O
Reply | 6.00 to 7.00

Ask | Form field - read-out: pIC50; system: GBA2 (Homo sapiens (Human)); submitted item: O[C@H]1[C@H](O)CN(CCc2c(F)cc(N3CCOCC3)cc2F)C[C@@H]1O
Reply | > 7.00

Ask | Form field - read-out: pIC50; system: GBA2 (Homo sapiens (Human)); submitted item: Cc1ccccc1N1CC[C@H](CN2C[C@@H](O)[C@H](O)[C@@H](O)C2)C1
Reply | > 7.00

Ask | Form field - read-out: pIC50; system: GBA2 (Homo sapiens (Human)); submitted item: O[C@H]1[C@H](O)CN(C[C@@H]2CCCN(c3cccnc3C(F)(F)F)C2)C[C@@H]1O
Reply | > 7.00

Ask | Form field - read-out: pIC50; system: GBA2 (Homo sapiens (Human)); submitted item: CC(CCc1cccc(Cl)c1F)N1C[C@@H](O)[C@H](O)[C@@H](O)C1 (stereo partly drawn)
Reply | 6.00 to 7.00

Ask | Form field - read-out: pIC50; system: GBA2 (Homo sapiens (Human)); submitted item: O[C@H]1[C@H](O)CN(Cc2ccc(OCC3CC3)cc2)C[C@@H]1O
Reply | > 7.00
